system: HCC-2998 colon; assay: NCI-60 one-dose screen, 48 h (100 = growth as untreated, 0 = no growth, -100 = all killed); details: 10 µM unless noted
Compounds without any hit were thinned out: in the full panel of roughly 83,000, 20% have a hit.
Reported growth values for a set of molecules
ASSAY ENDPOINT: growth (%)

> print(dat)
                      smiles.representation  assay.endpoint  test.value
1  CC1(C)CC[C@]2(C(=O)NCCCCCCN(CCCN)CCCN)CC[C@]3(C)C(=CC[C@@H]4[C@@]5(C)CC[C@H](O)C(C)(C)[C@@H]5CC[C@]43C)[C@@H]2C1          growth         103
2  COc1ccccc1Cn1cc(C#N)c(N)c1C(=O)c1ccc(Br)cc1          growth         103
3  COc1cc(C(=O)c2cc(C(C)=O)c3cccc(C)n23)cc(OC)c1OC          growth        61.1

* * *

system: SK-OV-3 ovarian; experiment: NCI-60 one-dose screen, 48 h; details: 10 µM unless noted
Compounds without any hit were thinned out: in the full panel of roughly 83,000, 20% have a hit. Calls of active or inactive are those of the source. How the source made its calls: active means growth percent below 10; inactive means the rest.
Outcome codes: active, inactive

COMPOUND	CATEGORY
CN1CCN(c2ccc(Nc3nc(NCCCNS(=O)(=O)c4ccc(F)cc4)c4sccc4n3)cc2)CC1	inactive
CC(C)(C)c1cc(NC(=O)Nc2ccc(-c3cn4c5c(sc4n3)CCc3cn(CCCN4CCCCC4)cc3-5)cc2)no1	inactive
CN(C)c1ccc(-c2cc(-c3c[nH]c4ccccc34)nc(N)c2C#N)cc1	inactive
COc1ccc(C(C)=C(c2ccc(OCCN(C)C)cc2)c2ccc(OCCN(C)C)cc2)cc1	active
CC(C)(C)Nc1nc2c(OCCc3ccccc3)cccn2c1-c1ccc([N+](=O)[O-])cc1	inactive
Cc1ccc2c(n1)C(=O)C(Cl)=C(Nc1cccc(C)c1C)C2=O	inactive
Cc1cc(NS(=O)(=O)c2ccc(NC(=O)CSc3nc4ccccc4c(=O)n3-c3ccccc3)cc2)no1	inactive
O=C1/C(=C/C=C/c2ccco2)SC(=S)N1Cc1ccccc1	inactive
O=C1[C@@H]2Cc3c([nH]c4ccccc34)[C@H](c3ccc(Br)cc3)N2C(=O)CN1C1CCN(Cc2c(Cl)cccc2Cl)CC1	inactive
NCCNC(=O)c1cccc(COc2ccccc2NC(=O)c2cc(Br)c(Br)[nH]2)c1	inactive
C[C@]12CC[C@H]3[C@@H](CC=C4C[C@@H](O)CC[C@@]43C)[C@@H]1CC[C@@H]2[C@](C)(O)CCc1cccnc1	inactive
C#Cc1nc(C(=O)NCCCCCCC(=O)NO)cs1	inactive
C/C(=C(\c1ccc(O)cc1)c1ccc(OCCN2CCCCCC2)cc1)c1ccc(Cl)cc1	active
CC(=O)OC[C@]12CC[C@@H](C(=O)/C=C/c3cccnc3)[C@@H]1[C@H]1CC[C@@H]3[C@@]4(C)CC[C@H](OC(C)=O)C(C)(C)[C@@H]4CC[C@@]3(C)[C@]1(C)CC2	inactive
COc1cc(NC(=O)Nc2cccc(-c3cc(=O)c4c(OC)c(OC)c(OC)cc4o3)c2)cc(OC)c1OC	inactive
CCCCCN1C(=O)/C(=c2\sc3n(c2=O)C2C(NN=3)N(CC)C(=O)N2CC)c2cccc(C)c21 (stereo unspecified)	inactive
Cc1cccc(N2CCN(C3=C(Cl)C(=O)c4ncccc4C3=O)CC2)c1	inactive
CCc1cc(OC(=O)N2CCC(N3CCCCC3)CC2)ccc1Nc1cc(-c2ccc(-n3cccn3)cc2)[nH]n1	inactive
CN1CCN(Cc2ccc(NC(=O)c3cncc(C#Cc4cnc5ccc(N6CCOCC6)nn45)c3)cc2C(F)(F)F)CC1	active
Cn1cc(-c2cc3ncnc(Nc4ccc(CC(=O)Nc5nc(C(C)(C)C)cs5)cc4)c3s2)cn1	inactive
C#CCOc1ccc(/C=N/Nc2nc(-c3ccc(OC)cc3)cs2)cc1	inactive
C#Cc1cc(C(=O)Nc2ccc(CNCCN3CCOCC3)c(C(F)(F)F)c2)ccc1C	inactive
COc1ccc(C2CC(c3cccc(OCCCCOc4cccc(C5=NN(C(C)=O)C(c6ccc(OC)cc6)C5)c4)c3)=NN2C(C)=O)cc1 (stereo unspecified)	inactive
CCOC(=O)c1c(N)c(C#N)cn1Cc1ccc(Cl)cc1Cl	inactive
CN1CCN(c2ccc(Nc3nc(NCCNS(=O)(=O)c4ccc(Cl)cc4)c4sccc4n3)cc2)CC1	inactive
O=C(CCCCCCN1CC(=O)N2[C@@H](c3cccs3)c3[nH]c4ccccc4c3C[C@H]2C1=O)NO	inactive
